- experimentalSystem: UniProt:P00533
propertyName: pIC50
pIC50 is defined as minus the log10 of a concentration measured in mol/L.

Field pIC50 (UniProt:P00533), entry `Clc1cccc(Nc2ncnc3ccccc23)c1` : 7.30

* * *

- experimentalSystem: UniProt P00533
- assayProcedure: Inhibition of Epidermal growth factor receptor autophosphorylation.
pIC50: −log10 of the molar value.
Given measured pIC50, output t if it is greater than or equal to 7 and f if not.

Illustrative cases are given below, each with its answer.
COc1cc2nc(Cl)nc(Nc3cc(OC)c(OC)c(OC)c3)c2cc1OC f
COc1ccc(Nc2ncnc3cc(OC)c(OC)cc23)cc1OC f

# input For this molecule, is measured pIC50 7 or higher? `COc1ccc(Nc2ncnc3cc(OC)c(OC)cc23)cc1`
# output f

# input For this molecule, is measured pIC50 7 or higher? `COc1cc(Nc2ncnc3ccc(Cl)cc23)cc(OC)c1OC`
# output f

* * *

- experimentalSystem: UniProt P06239
- assayProcedure: Inhibition of p56 Lck tyrosine kinase in Jurkat cells where p56lck autophosphorylation is inhibited.
- Type: cell-based
- runConditions: jurkat
propertyName: pIC50
pIC50 is defined as minus the log10 of a concentration measured in mol/L.

// `COc1ccc(Nc2ncnc3cc(OC)c(OC)cc23)cc1OC` : pIC50 value = 5.00

* * *

- experimentalSystem: Tyrosine-protein kinase Lck (Homo sapiens)
- Sequence (P06239 whole entry): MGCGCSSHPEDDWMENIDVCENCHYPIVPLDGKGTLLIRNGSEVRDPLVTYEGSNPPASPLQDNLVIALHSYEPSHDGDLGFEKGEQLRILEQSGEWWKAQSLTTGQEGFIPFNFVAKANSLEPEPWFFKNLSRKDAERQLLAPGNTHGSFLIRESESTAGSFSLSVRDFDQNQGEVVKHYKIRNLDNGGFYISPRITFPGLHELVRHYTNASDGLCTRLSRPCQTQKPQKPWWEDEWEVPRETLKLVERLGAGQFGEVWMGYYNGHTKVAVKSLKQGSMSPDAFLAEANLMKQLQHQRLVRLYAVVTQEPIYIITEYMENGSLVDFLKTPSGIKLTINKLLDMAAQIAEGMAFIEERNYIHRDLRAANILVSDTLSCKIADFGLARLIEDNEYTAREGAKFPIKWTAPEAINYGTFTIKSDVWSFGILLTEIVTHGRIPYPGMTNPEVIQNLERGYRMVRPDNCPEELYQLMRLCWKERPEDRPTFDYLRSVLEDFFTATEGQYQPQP
- assayProcedure: Inhibition of p56lck kinase autophosphorylation in Jurkat cells
- Assay type: cell-based
propertyName: IC50 (µM)
Write it as a number; the unit µM goes unstated.

Consider the following illustrative entries.
COc1cc2ncnc(Nc3cccc(Cl)c3)c2cc1OC 5
Clc1cccc(Nc2ncnc3ccccc23)c1 50

Now consider the entry below.
// `COc1cc2ncnc(Nc3ccccc3)c2cc1OC` : IC50 value = 10

* * *

Consider the following compounds and their measured IC50 readings.
- experimentalSystem: UniProt:P06239
- assayProcedure: Inhibition of p56 Lck tyrosine kinase in Jurkat cells where p56lck autophosphorylation is inhibited.
- Format: cell-based

Consider the following illustrative entries.
compound	IC50
COc1cc2ncnc(Nc3ccc(N4CCOCC4)cc3)c2cc1OC	> 100 µM
COc1cc(Nc2[nH]cnc3ncnc2-3)cc(OC)c1OC	50 µM
COc1cc2ncnc(Nc3cccc(F)c3)c2cc1OC	10 µM
COc1cc2ncnc(Nc3ccc(O)cc3)c2cc1OC	3 µM
COc1c(C=O)c(O)cc2c1C(=O)c1ccccc1C2=O [DAMNACANTHAL]	0.017 µM

Now consider the entry below.
// `COc1cc2nc(Cl)nc(Nc3cc(OC)c(OC)c(OC)c3)c2cc1OC` : IC50 value = > 100 µM

* * *

- experimentalSystem: Epidermal growth factor receptor (Homo sapiens, UniProt P00533)
- Sequence (P00533 whole entry): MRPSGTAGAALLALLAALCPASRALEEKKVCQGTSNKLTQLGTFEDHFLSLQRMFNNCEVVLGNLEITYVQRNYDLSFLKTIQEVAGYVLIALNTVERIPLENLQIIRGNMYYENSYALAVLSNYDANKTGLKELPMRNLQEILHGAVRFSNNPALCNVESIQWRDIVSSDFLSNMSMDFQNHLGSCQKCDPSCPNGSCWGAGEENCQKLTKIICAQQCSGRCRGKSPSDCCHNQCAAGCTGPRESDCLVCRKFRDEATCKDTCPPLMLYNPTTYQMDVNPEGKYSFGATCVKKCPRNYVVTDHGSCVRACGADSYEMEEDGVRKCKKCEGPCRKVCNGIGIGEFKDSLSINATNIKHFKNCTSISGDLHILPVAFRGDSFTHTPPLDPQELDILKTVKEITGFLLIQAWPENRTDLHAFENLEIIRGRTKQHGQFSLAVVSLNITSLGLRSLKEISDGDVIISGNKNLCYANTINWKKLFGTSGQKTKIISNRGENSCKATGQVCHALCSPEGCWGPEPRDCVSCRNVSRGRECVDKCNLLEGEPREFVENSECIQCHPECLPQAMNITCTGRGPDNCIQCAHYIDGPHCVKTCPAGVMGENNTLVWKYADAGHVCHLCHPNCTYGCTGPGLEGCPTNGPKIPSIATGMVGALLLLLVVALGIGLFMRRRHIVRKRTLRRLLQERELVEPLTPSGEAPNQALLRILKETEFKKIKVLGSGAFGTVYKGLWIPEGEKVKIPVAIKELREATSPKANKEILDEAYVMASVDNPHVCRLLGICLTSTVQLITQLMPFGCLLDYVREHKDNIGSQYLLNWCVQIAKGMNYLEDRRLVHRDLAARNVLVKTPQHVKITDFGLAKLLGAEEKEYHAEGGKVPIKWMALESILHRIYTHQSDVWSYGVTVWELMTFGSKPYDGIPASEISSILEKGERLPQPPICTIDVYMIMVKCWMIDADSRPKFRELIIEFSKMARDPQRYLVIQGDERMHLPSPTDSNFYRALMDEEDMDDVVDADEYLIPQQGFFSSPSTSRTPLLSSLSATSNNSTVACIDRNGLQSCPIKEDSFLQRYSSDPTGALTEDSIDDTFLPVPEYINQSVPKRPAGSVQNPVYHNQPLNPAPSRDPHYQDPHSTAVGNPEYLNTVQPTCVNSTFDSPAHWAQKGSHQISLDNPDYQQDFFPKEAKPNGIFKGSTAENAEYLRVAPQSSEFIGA
- assayProcedure: Inhibition of Epidermal growth factor receptor autophosphorylation.
Consider the following compounds and their measured IC50 readings.
Write it as a number; the unit nM goes unstated.

Consider the following illustrative entries.
COc1cc2ncnc(Nc3ccc(O)cc3)c2cc1OC 100
COc1cc2ncnc(Sc3cccc(Cl)c3)c2cc1OC 10
COc1cc(Nc2ncnc3cc(OC)c(OC)cc23)cc(OC)c1 3000
COc1cc2ncnc(Oc3cccc(Cl)c3)c2cc1OC 20
COc1cc2ncnc(NCc3ccccc3)c2cc1OC 4

Now consider the entry below.
// `COc1ccc2ncnc(Nc3cc(OC)c(OC)c(OC)c3)c2c1` : IC50 value = 100
